Cited source: patent US20050058639A1

- assaySystem: T1, human monocyte chemo-attractant protein-1 (MCP-1) (human, UniProt P13500 24-99)
- T1 construct: 76-residue recombinant protein from E. coli, bought (PeproTech); also called hMCP-1(MCAF); human MCP-1
- T1 sequence (P13500 24-99): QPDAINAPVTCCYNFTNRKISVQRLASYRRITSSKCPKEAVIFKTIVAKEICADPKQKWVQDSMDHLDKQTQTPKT
- assayRemarks: ELISA, hybridoma supernatant on coated MCP-1
Form field: ELISA OD-MCP-1 (one value per entry).

{"columns": ["binder", "ELISA OD-MCP-1 (OD450)"],
 "data": [
  ["anti-MCP-1 mAb 1.4.1 (antibody, V domains shown) VH: QSGPGLVKPSQTLSLTCAISGDSVSSNSAAWNWIRQSPSRGLEWLGRTYYRSKWYSDHAVSVRSRITIYPDTSKNQFSLQLNSVTPEDTAVYYCARDRISGTYVGMDVWGQGTTVTVSS VL: DIGMTQTPLSLSVTPGQPASISCKSSQSLLYSDGKTYLYWYLQKPGQPPQHLIYEVSNRFSGVPDRFSGSGSGTDFTLKISRVEADDVGVYYCMQTIHLPLTFGGGTKVEIQR", 4],
  ["anti-MCP-1 mAb 1.11.1 (antibody, V domains shown) VH: QVQVVQSGAEVKNPGASVKVSCKVSGSTLTELSMHWVRQAPGKGLEWMGGFDPEDGETIYAQKFQGRVTMTEDTSTDTVYMELSSLRSEDTAVYYCATNDFWSGYFDYWGQGTLVTVSS VL: DIVMTQSPDSLAVSLGERATITCKSSQTVLYSSNNKNYLVWYQQKSGQPPKLLIHWASIRESGVPDRFSGSGSGTDFTLTISSLQAEDVAVYYCQQYYSSPWTFGQGTKVEIKR", 3.9],
  ["anti-MCP-1 mAb 3.2 (antibody, V domains shown, also called 3.2 (neat)) VH: QVQLVQSGAEVKKPGASVKVSCKVSGYTLSELSMHWVRQAPGKGLEWMGGFDPEDGEIIHAQKFQGRVTMTEDTSTDTAYMELSSLRSEDTAVYYCATGDFWSGYYLDWWGQGTLVTVSS VL: EIVMMQSPATLSVSPGERATLSCRASQSVNSNLAWYQQKPGQAPRLLINGASTRATGIPARFSGSGSGTEFTLTISSLQSEDFAIYYCQQYNDWPTFTFGGGTKVEINR", 3.96]
]}
